# assayTarget: Protein-glutamine gamma-glutamyltransferase (Homo sapiens)
# Sequence (whole entry): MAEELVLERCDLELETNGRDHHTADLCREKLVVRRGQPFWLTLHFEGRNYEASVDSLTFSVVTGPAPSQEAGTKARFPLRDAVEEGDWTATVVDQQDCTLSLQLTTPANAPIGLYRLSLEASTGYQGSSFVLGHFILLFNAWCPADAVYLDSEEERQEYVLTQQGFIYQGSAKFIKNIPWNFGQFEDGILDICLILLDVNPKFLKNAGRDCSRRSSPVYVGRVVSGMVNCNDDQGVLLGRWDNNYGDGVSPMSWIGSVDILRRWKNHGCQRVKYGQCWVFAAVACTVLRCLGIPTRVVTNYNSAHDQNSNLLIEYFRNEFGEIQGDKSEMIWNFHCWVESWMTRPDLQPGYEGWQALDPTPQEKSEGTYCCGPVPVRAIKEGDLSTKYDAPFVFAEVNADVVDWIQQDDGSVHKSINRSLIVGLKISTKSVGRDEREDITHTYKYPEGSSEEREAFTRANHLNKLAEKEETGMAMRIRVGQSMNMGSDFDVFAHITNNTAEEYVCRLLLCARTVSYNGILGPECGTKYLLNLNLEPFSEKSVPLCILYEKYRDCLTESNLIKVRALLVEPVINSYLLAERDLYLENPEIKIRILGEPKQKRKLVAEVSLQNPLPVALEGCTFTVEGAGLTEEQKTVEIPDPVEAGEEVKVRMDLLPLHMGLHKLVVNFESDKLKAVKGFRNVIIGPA
# testSummary: Inhibition of recombinant human TG2 expressed in Escherichia coli assessed as Kinact using Cbz-Glu(gamma-p-nitrophenyl ester)Gly (AL5) as substrate by colorimetric assay
measuredProperty: Kinact (min⁻¹)
Give a bare numeral; the unit min⁻¹ is implied.

Consider the worked cases shown below.
INSERT INTO measurements (cpdsmiles, readoutvalue) VALUES
  ('C=CC(=O)NCCCCC(=O)N1CCN(C(=O)C23CC4CC(CC(C4)C2)C3)CC1', 0.19),
  ('C=CC(=O)NCC(=O)N1CCN(S(=O)(=O)c2cccc3ccccc23)CC1', 0.7),
  ('C=CC(=O)NCCCCC(=O)N1CCN(C(=O)c2cccc3ccccc23)CC1', 0.44),
  ('C=CC(=O)NCC(=O)N1CCN(C(=O)c2cccc3ccccc23)CC1', 0.69),
  ('C=CC(=O)NCCC(=O)N1CCN(C(=O)c2cccc3ccccc23)CC1', 0.13),
  ('C=CC(=O)NCCCC(=O)N1CCN(S(=O)(=O)c2cccc3c(N(C)C)cccc23)CC1', 0.54);

Now for the compound whose Kinact we want.
Summary line: C=CC(=O)NCC(=O)N1CCN(S(=O)(=O)c2cccc3c(N(C)C)cccc23)CC1 , Protein-glutamine gamma-glutamyltransferase (Homo sapiens), reported Kinact = 2.25
